src = the DeepSol protein solubility set

Experiment: soluble on expression in E. coli; label from the status in PepcDB or PDB records
value.kind: soluble on expression in E. coli

sequence.string	value.kind	result.value
MSLILFFYFMVLSEACMRTVAPEDVYISSTFPFEDFTTEAVVTTDSSTISQLTTETTMETVETHIFYVTCKNRYPISNRNCLINRHTDDFFCFILPVDACMRTVPPEDVYISITLPYEDFTTESNEIAVTTDSSTVPQLVTETTEIPTATTTPGWSSKTELHWKISKILNTK	soluble on expression in E. coli	not soluble
MGSDKIHHHHHHMLENTGLVLEGGGMRGVYTGGILEYFMEQDLYFPYVIGVSAGACHAASYLSRQRNRNKTVNIDYASHPKYLSYKNLWRKRQLFDMDFIFHEIPEKHVPFDFETYFNSPERFLVGTTDCETGQSVYFEKEGTNDDALNLLQASSSLPFIAPVVNYRGKQLLDGGISDPIPVRKAQEDGFKKSVVILTRNHGYAKKKSRFGWIAAKAYKKYPNLVNTMLNRYEVYNETLHYIEKEEQAGNLFVIRPEVPLQVDRMEKDTAKLQNLYEQGYEDAKRQFADLKAFLQK	soluble on expression in E. coli	not soluble

====

Assay: soluble on expression in E. coli; label from the status in PepcDB or PDB records
value.kind: soluble on expression in E. coli

sequence.string	result.value
MDGDQVKGILKSGNNSAQFSLKAAKFDEVNILATFHPAGKDYGHMIIDEPKTPFVFEEDLPKELDTNALIEKLRHTSKSEMPAFGIEGDSEESSADEDFPESVEEKVRRMEFERRRKVHYKEFYSVPLARRLIADEFAELTSSEFNIHCEGGMESCEACSENNQLDGEASNLTQTKYSYSESQSEYRISDHSEPEPGFSPSHHCYQKLKAELFSKAEPEELASLTHLHRMPSVNDDEPSREPRVPYPSVVPTQTQNLHEHKSSLKITSEKPTPARICKSNPDNRPGTSKKETRLEHHHHHH	not soluble
MQAAPQGGIYNYFHSLLPPLSLAPFLPRTPLPSTSLFCKGLKKERYKPRFRPRECHCSVENLHLGHEMQNSHRTICKSALQLLPPSWSDPFRRRDADFPPNSPSPARPSSENASNRAKEKVHLSPIIALCISHHTSQEKLFTQHLMNMPTGETHKSPPS	not soluble

====

Experiment: soluble on expression in E. coli; label from the status in PepcDB or PDB records

sequence.string	soluble on expression in E. coli
MAHHHHHHMTSTTQPKWTRLPIRTRPHRNPLAENSDNHPDCPAELQEQCTTLFPGMDNPVITLVDVGCAFGGMLFSLAPDFPDMCMLGLEIRPKVVEFAQNKVMKLREGAATDGTSHHYRNVWFEQLNVMKFGSNCFNKGQLQALFFCYPDPHWKRKNVRRRIISPGLVQEYAYWLKVGGFLFTVSDVEELERWMVTCLDGCPLFRQLSQEELAGNEMVRKMLDYAANSSEDAQRTTRKGLQKHYAVHVRVP	not soluble
YYPKIAEEVYLATLDNGMSLSIIKKKGFIEKAAFLSTNFGALDNRFYIDGKLQTYPAGIAHFLEHKLFEDDQGRDVTLDFVKLGADVNAFTTLDRTTYYFSTIDHFEESLELLLKFTSEFTSSEDTVNHEKRIIEQEINMYQDDPDYRVYLGCLQSLYPNTILGQDIAGSIDSIKKITTKDLKNNFDYFYRPENCHLVLIGNFDIEQIYRFVKETRSEFTISHKTVEK	not soluble
INYEKVGLKVGLEIHQQLNTKRKLFCHCPTILRDDEPDGEIVRVLRPSLSEMGEVDRAALIEARKGKKFIYQFYNDTTCLVELDEEPPHPPSEEALRIALEVALLMNMNVVDVAYTMRKIVIDGSNTSGFQRTIFLARDGYIETSEGKVGITSLCLEEDAARKIEDRGDAVVYNLDRLGIPLVEISTAPDIKTPKMAKEAARRIGEILRATGKVKRGLGTIRQDINISIKDGARIEVKGVQDLDLIEKVVENEVIRQLNLL	not soluble
